Target: hRIPK1 (aa 1-375) fusion protein (Homo sapiens)
Construct: hRIPK1 (aa 1-375) fusion protein
Assay: ADP-Glo kinase assay: catalytic activity of RIPK1 (autophosphorylation, conversion of ATP to ADP)
pIC50: −log10 of the molar value.
Output condition met for pIC50 not less than 8; output condition not met otherwise.

molecule="Cc1nc2c(Cl)cc(C[C@H]3CC[C@H](C(=O)N4OCC[C@H]4c4cnc(C)c(F)c4)CC3)cn2n1 [compound 381]" label="condition not met"
molecule="Cn1ncc2ncc(C[C@H]3CC[C@H](C(=O)N4OCC[C@H]4c4cc(F)cc(C#N)c4)CC3)cc21 [compound 296]" label="condition met"
molecule="COc1cc(C[C@H]2CC[C@H](C(=O)N3OCC[C@H]3c3ccc(C)nc3)CC2)cn2nc(C)nc12 [compound 368]" label="condition not met"

Task: Quick check, pIC50 >= 8? Cc1cncc([C@@H]2CCON2C(=O)[C@H]2CC[C@H](Cc3cc(C)c4nc(C)nn4c3)CC2)c1 [compound 378]
Result: condition not met

Task: Is pIC50 at least 8? Consider N#Cc1cc(F)cc([C@@H]2CCON2C(=O)[C@H]2CC[C@H](Cn3c(=O)oc4ccccc43)CC2)c1 [compound 18]
Result: condition not met

Task: Would you say Cn1nccc1C[C@H]1CC[C@H](C(=O)N2OCC[C@H]2c2cc(F)cc(C#N)c2)CC1 [compound 237] shows pIC50 at minimum 8?
Result: condition not met

----------
Target: hRIPK1 (aa 1-375) fusion protein (Homo sapiens, UniProt Q13546)
Construct: hRIPK1 (aa 1-375) fusion protein
Sequence (Q13546 1-375): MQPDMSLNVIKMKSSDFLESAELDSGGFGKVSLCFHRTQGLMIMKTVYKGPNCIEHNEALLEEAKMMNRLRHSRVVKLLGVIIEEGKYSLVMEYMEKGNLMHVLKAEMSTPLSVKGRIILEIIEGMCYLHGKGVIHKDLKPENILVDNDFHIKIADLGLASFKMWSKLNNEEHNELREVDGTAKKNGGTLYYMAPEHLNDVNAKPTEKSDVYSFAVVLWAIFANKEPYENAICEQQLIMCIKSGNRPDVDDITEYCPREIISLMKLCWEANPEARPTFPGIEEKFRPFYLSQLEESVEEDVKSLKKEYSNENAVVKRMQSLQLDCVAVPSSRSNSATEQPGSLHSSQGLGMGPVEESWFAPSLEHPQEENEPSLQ
Assay: ADP-Glo kinase assay: catalytic activity of RIPK1 (autophosphorylation, conversion of ATP to ADP)
Field: pIC50. Provide a value for each of the molecules that follow.
Numbers only, as −log10 of the molar value.

Example molecules with recorded pIC50:
molecule="Cn1cc(C[C@H]2CC[C@H](C(=O)N3OCC[C@H]3c3cc(F)cc(F)c3)CC2)cn1 [compound 236]" assay_system="hRIPK1 (aa 1-375) fusion protein (Homo sapiens, UniProt Q13546)" meas_value=7.70
molecule="O=C1NCc2ccc(C[C@H]3CC[C@H](C(=O)N4OCC[C@H]4c4ccc(F)cc4)CC3)cc21 [compound 154]" assay_system="hRIPK1 (aa 1-375) fusion protein (Homo sapiens, UniProt Q13546)" meas_value=7.64
molecule="NC(=O)c1cc(C[C@H]2CC[C@H](C(=O)N3OCC[C@H]3c3cc(F)cc(F)c3)CC2)ccc1F [compound 192]" assay_system="hRIPK1 (aa 1-375) fusion protein (Homo sapiens, UniProt Q13546)" meas_value=8.30

# ---- query molecule ----
response.value for Cc1cc(C)n(C[C@H]2CC[C@H](C(=O)N3OCC[C@H]3c3cc(F)cc(F)c3)CC2)n1 [compound 118] (field: pIC50) = 7.64

----------
Biological target: hRIPK1 (aa 1-375) fusion protein (Homo sapiens, UniProt Q13546)
Construct: hRIPK1 (aa 1-375) fusion protein
Sequence (Q13546 1-375): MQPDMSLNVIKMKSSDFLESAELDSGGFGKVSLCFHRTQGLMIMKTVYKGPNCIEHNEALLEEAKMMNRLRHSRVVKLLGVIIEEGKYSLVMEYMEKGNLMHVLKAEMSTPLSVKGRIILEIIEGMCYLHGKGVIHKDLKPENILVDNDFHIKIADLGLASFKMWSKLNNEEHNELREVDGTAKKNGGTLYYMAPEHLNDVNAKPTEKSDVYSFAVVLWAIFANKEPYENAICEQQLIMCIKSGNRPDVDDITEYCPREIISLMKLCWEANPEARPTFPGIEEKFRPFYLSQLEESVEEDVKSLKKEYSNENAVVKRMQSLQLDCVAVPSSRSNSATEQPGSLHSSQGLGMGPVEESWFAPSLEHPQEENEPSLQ
Test: ADP-Glo kinase assay: catalytic activity of RIPK1 (autophosphorylation, conversion of ATP to ADP)
reported_property: IC50
Answer format: number, then unit.

Answered examples (3):
given_smiles=Cc1nn(C[C@H]2CC[C@H](C(=O)N3OCC[C@H]3c3cc(F)cc(F)c3)CC2)c2cc(C#N)cc(F)c12 reported_property=IC50 meas_value="18 nM"
given_smiles=Cc1cc(C[C@H]2CC[C@H](C(=O)N3OCC[C@H]3c3cnccn3)CC2)c(Cl)cn1 reported_property=IC50 meas_value="14 nM"
given_smiles=COc1ccc2c(ccn2C[C@H]2CC[C@H](C(=O)N3OCC[C@H]3c3cc(F)cc(C#N)c3)CC2)n1 reported_property=IC50 meas_value="41 nM"

# next compound below
According to the records, this compound `Cc1nnc2c(F)cc(C[C@H]3CC[C@H](C(=O)N4OCC[C@H]4c4cnccn4)CC3)cn12` displays IC50 of 104 nM

----------
Biological target: hRIPK1 (aa 1-375) fusion protein (Homo sapiens)
Construct: hRIPK1 (aa 1-375) fusion protein
Experiment: ADP-Glo kinase assay: catalytic activity of RIPK1 (autophosphorylation, conversion of ATP to ADP)
Task for the reader: assign each of the following molecules its reported IC50.
Answers are plain numbers, in nM.

Batch request: IC50 for each of the following molecules.
1. N#Cc1cc(F)cc([C@@H]2CCON2C(=O)[C@H]2CC[C@H](Cn3ccc4ncc(Cl)cc43)CC2)c1
2. N#Cc1ccc2cn(C[C@H]3CC[C@H](C(=O)N4OCC[C@H]4c4cnccn4)CC3)nc2c1
3. N#Cc1cc(F)cc([C@@H]2CCON2C(=O)[C@H]2CC[C@H](Cn3ccc4ncc(OCC5CC5)cc43)CC2)c1
4. Cc1nc2cc(C[C@H]3CC[C@H](C(=O)N4OCC[C@H]4c4csc(C)n4)CC3)ccn2n1
5. N#Cc1cncc([C@@H]2CCON2C(=O)[C@H]2CC[C@H](Cn3ccc4c(F)cc(C#N)cc43)CC2)c1

Result:
1. 28
2. 75
3. 7
4. 53
5. 11

Provide IC50 values for the following items, in order.
1. Cn1cc(C[C@H]2CC[C@H](C(=O)N3OCC[C@H]3c3cnccn3)CC2)cn1
2. COc1cc(C[C@H]2CC[C@H](C(=O)N3OCC[C@H]3c3cnc(C)c(F)c3)CC2)cn2nc(C)nc12
3. Cn1cncc1C[C@H]1CC[C@H](C(=O)N2OCC[C@H]2c2cc(F)cc(C#N)c2)CC1
4. N#Cc1cc(F)cc([C@@H]2CCON2C(=O)[C@H]2CC[C@H](Cc3cncc(F)c3)CC2)c1
5. Cc1nc2ccc(C[C@H]3CC[C@H](C(=O)N4OCC[C@H]4c4cnccn4)CC3)cn2n1
6. COc1cnc2ccn(C[C@H]3CC[C@H](C(=O)N4OCC[C@H]4c4cc(F)cc(C#N)c4)CC3)c2c1
7. N#Cc1cc(F)cc([C@@H]2CCON2C(=O)[C@H]2CC[C@H](Cn3cc4c(F)cc(C#N)cc4n3)CC2)c1
8. O=C([C@H]1CC[C@H](Cn2cnc3cc(F)ccc32)CC1)N1OCC[C@H]1c1cc(F)cc(F)c1

Result:
1. 46
2. 26
3. 104
4. 18
5. 37
6. 22
7. 37
8. 21

Dear reader, for each entry below, please note its IC50.
1. COc1cncc([C@@H]2CCON2C(=O)[C@H]2CC[C@H](Cn3ncc4ncc(C#N)cc43)CC2)n1
2. Cc1nc2ccc(C[C@H]3CC[C@H](C(=O)N4OCC[C@H]4c4ccc(F)cc4)CC3)cn2n1
3. Cn1nccc1-c1cc(F)cc(C[C@H]2CC[C@H](C(=O)N3OCC[C@H]3c3cc(F)cc(C#N)c3)CC2)c1
4. Cc1ccc(CC23CCC(C(=O)N4OCC[C@H]4c4cc(F)cc(F)c4)(CC2)C3)cc1C(N)=O

Result:
1. 23
2. 32
3. 20
4. 13

I need IC50 for every entry listed below, if you could help.
1. N#Cc1cc(F)cc([C@@H]2CCON2C(=O)[C@H]2CC[C@H](Cn3ccc4ncccc43)CC2)c1
2. Cc1nc([C@@H]2CCON2C(=O)[C@H]2CC[C@H](Cc3ccc(C)c(C(N)=O)c3)CC2)cs1
3. N#Cc1cc(F)cc([C@@H]2CCON2C(=O)[C@H]2CC[C@H](Cn3ncc4ncc(C#N)cc43)CC2)c1
4. Cc1cn2cc(C[C@H]3CC[C@H](C(=O)N4OCC[C@H]4c4cnccn4)CC3)cc(F)c2n1
5. Cc1ncc(C#N)cc1C[C@H]1CC[C@H](C(=O)N2OCC[C@H]2c2cc(F)cc(C#N)c2)CC1
6. N#Cc1cc2c(cc1F)ncn2C[C@H]1CC[C@H](C(=O)N2OCC[C@H]2c2cnccn2)CC1
7. N#Cc1cncc([C@@H]2CCON2C(=O)[C@H]2CC[C@H](Cn3cnc4ccc(F)cc43)CC2)c1
8. Cc1cn2nc(C[C@H]3CC[C@H](C(=O)N4OCC[C@H]4c4cc(F)cc(F)c4)CC3)c(C)cc2n1

Result:
1. 50
2. 7
3. 6
4. 63
5. 19
6. 32
7. 46
8. 14
